Molecular target: S protein of SARS-CoV-2 BetaCoV/Korea/KCDC03/2020 (614D, S형) (SARS-CoV-2, UniProt P0DTC2 14-1273)
Assay: cell-based or functional assay
Measured quantity: IC50, PRNT (µg/mL)

1. No. 270 항체 (Full IgG) (antibody, V domains shown) VH: QVQLVQSGGGLVQPGGSLRLSCAASGLTVSSNYMTWVRQAPGKGLEWVSVIYSGGSTFYADSVKGRFTISRDNSKNTLYLQMNSLRAEDTAVYYCARDLVVYGMDVWGQGTTVTVSS VL: ELVLTQSPGTLSLSPGERATLSCRASQSVSSYLAWYQQKPGQAPRLLIYDASNRATGIPARFSGSGSGTDFTLTISSLEPEDFAVYYCQQYGSSPLTFGGGTKVDIK    0.152
